Molecular target: T1, hIL2Rβ (hCD122) (human, UniProt P14784 27-239, limits assumed)
T1 construct: bought recombinant protein; also called hCD122 (Acro)
T1 sequence (looked up): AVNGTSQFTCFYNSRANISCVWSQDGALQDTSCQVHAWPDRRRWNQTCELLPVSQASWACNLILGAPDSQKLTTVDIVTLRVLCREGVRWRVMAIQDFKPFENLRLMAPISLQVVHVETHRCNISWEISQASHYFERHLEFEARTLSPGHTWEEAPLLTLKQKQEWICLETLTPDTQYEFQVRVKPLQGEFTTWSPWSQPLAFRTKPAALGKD
Experiment: ELISA (method of section 2.1.1): sample captured on coated goat anti-human IgG, hCD122 titrated; the x axis is the CD122 concentration
measurement.kind: binding result

{"binder": "IC-Cy08-QS (other, IC-Cy08 with light chain Q27S; also called H6K3(H)-Cy-08-QS) heavy: APTSSSTKKTQLQLEHLLLDLQMILNGINNYKNPKLTRMLTFKFYMPKKATELKHLQCLEEELGCLEEVLNLAQSKNFHLRPRDLISNIRVIVLELKGSETTFMCEYADETATIVEFLNRWITFCQSIISTLTGGGGSGGGGSGGGGSGGGGSQVQLVQSGAEVKKPGATVKISCKVSGDTITAYYMHWVRQAPGQGLEWIGRIDPEDDSTKYAENFKGRVTITADTSTDTAYMELSSLRSEDTAVYYCTTVTCYYSRELRWFAYWGQGTLVTVSS VL: DIVLTQSPATLSLSPGERATLSCQASSDIGNYLSWYQQKPGQAPRLLIYSATSLASGIPARFSGSRSGTDFTLTISSLEPEDFAVYYCLQHYSTPYTFGQGTKLEIK", "measurement": "binds"}
{"binder": "IC-Cy08-QD (other, IC-Cy08 with light chain Q27D; also called H6K3(H)-Cy-08-QD) heavy: APTSSSTKKTQLQLEHLLLDLQMILNGINNYKNPKLTRMLTFKFYMPKKATELKHLQCLEEELGCLEEVLNLAQSKNFHLRPRDLISNIRVIVLELKGSETTFMCEYADETATIVEFLNRWITFCQSIISTLTGGGGSGGGGSGGGGSGGGGSQVQLVQSGAEVKKPGATVKISCKVSGDTITAYYMHWVRQAPGQGLEWIGRIDPEDDSTKYAENFKGRVTITADTSTDTAYMELSSLRSEDTAVYYCTTVTCYYSRELRWFAYWGQGTLVTVSS VL: DIVLTQSPATLSLSPGERATLSCQASDDIGNYLSWYQQKPGQAPRLLIYSATSLASGIPARFSGSRSGTDFTLTISSLEPEDFAVYYCLQHYSTPYTFGQGTKLEIK", "measurement": "binds"}
{"binder": "IC-Cy08-QK (other, IC-Cy08 with light chain Q27K; also called H6K3(H)-Cy-08-QK; C-Cy8-QK) heavy: APTSSSTKKTQLQLEHLLLDLQMILNGINNYKNPKLTRMLTFKFYMPKKATELKHLQCLEEELGCLEEVLNLAQSKNFHLRPRDLISNIRVIVLELKGSETTFMCEYADETATIVEFLNRWITFCQSIISTLTGGGGSGGGGSGGGGSGGGGSQVQLVQSGAEVKKPGATVKISCKVSGDTITAYYMHWVRQAPGQGLEWIGRIDPEDDSTKYAENFKGRVTITADTSTDTAYMELSSLRSEDTAVYYCTTVTCYYSRELRWFAYWGQGTLVTVSS VL: DIVLTQSPATLSLSPGERATLSCQASKDIGNYLSWYQQKPGQAPRLLIYSATSLASGIPARFSGSRSGTDFTLTISSLEPEDFAVYYCLQHYSTPYTFGQGTKLEIK", "measurement": "binds"}
